// provenance: patent US20200207782A1

experiment: Solution stability test (residual ratio and generation of active form in buffers of pH 2.0 to 9.0)
Type: physicochemical
conditionNotes: pH of 3.0, 25° C.
Experimental: The test compounds were incubated at 25° C. at a concentration of 25 umol/L in a buffer prepared to have a pH of 2.0, 3.0, 5.0, 7.4, and 9.0. The compounds were measured by HPLC after 0, 3, 6, 9, 12, and 24 hours. […] The yield of the Example and Reference Example compounds and active forms is calculated with each of the peak area of the Example and Reference Example compounds at 0 minutes and the peak area upon dissolution of the corresponding active form at 100 umol/L as 100%. […]
Structures can show the parent of a compound that is named as a salt.
measurementType: Stability in solution (in words)

• CC(=O)c1cc2c(O)c3c(O)cccc3c(OC(=O)NCCCN)c2o1 [Reference Example 9, hydrochloride] = sufficient stability
• CN1CC[C@H](c2c(OC(=O)N(C)CCN)cc(O)c3c(=O)cc(-c4ccccc4Cl)oc23)[C@H](O)C1 = sufficient stability

* * *

Let's look at some compounds and their measured Residual ratio.
experiment: Solution stability test (residual ratio and generation of active form in buffers of pH 2.0 to 9.0)
Assay type: physicochemical
conditionNotes: pH5.0 buffer, 25° C., 25 umol/L, 24 hr
Description: The test compounds were incubated at 25° C. at a concentration of 25 umol/L in a buffer prepared to have a pH of 2.0, 3.0, 5.0, 7.4, and 9.0. The compounds were measured by HPLC after 0, 3, 6, 9, 12, and 24 hours. […] The yield of the Example and Reference Example compounds and active forms is calculated with each of the peak area of the Example and Reference Example compounds at 0 minutes and the peak area upon dissolution of the corresponding active form at 100 umol/L as 100%. […]
Counter-ions that a name gives are not always drawn.
measurementType: Residual ratio (%)

• Cc1cc(OC(=O)NCCNCC(=O)O)c2ccccc2c1OC(=O)NCCNCC(=O)O [Example 2, dihydrochloride] = 102
• C[C@H]1COc2c1c(OC(=O)NCCCNCC(=O)O)c(OC(=O)NCCCNCC(=O)O)c1c3c(ccc21)C(C)(C)CCC3 [Example 13, dihydrochloride] = 98.4
• CC(=O)c1cc2c(OC(=O)NCCNCC(=O)O)c3ccsc3c(OC(=O)NCCNCC(=O)O)c2o1 [Example 1, dihydrochloride] = 0.0
• NCCCNC(=O)Oc1c(OC(=O)NCCCN)c(-c2ccccc2)c2c(c1-c1ccccc1)OCO2 = 99.5

* * *

experiment: Solution stability test (residual ratio and generation of active form in buffers of pH 2.0 to 9.0)
Type: physicochemical
conditionNotes: pH3.0 buffer, 25° C., 25 umol/L, 9 hr
Where a name gives a salt, the structure may show the parent alone.
measurementType: Residual ratio

* CC(=O)c1cc2c(OC(=O)NCCNCC(=O)O)c3ccsc3c(OC(=O)NCCNCC(=O)O)c2o1 [Example 1, dihydrochloride] | 95.6%
* NCCCNC(=O)Oc1c(OC(=O)NCCCN)c(-c2ccccc2)c2c(c1-c1ccccc1)OCO2 [Example 6] | 100%
* C[C@H]1COc2c1c(OC(=O)NCCCNCC(=O)O)c(OC(=O)NCCCNCC(=O)O)c1c3c(ccc21)C(C)(C)CCC3 [Example 13, dihydrochloride] | 99.8%
* CC(=O)c1cc2c(O)c3c(O)cccc3c(OC(=O)NCCCN)c2o1 [Reference Example 9, hydrochloride] | 99.8%
* Cc1cc(OC(=O)NCCNCC(=O)O)c2ccccc2c1OC(=O)NCCNCC(=O)O [Example 2, dihydrochloride] | 100%
* C[C@H]1COc2c1c(OC(=O)NCCNCC(=O)O)c(OC(=O)NCCNCC(=O)O)c1c3c(ccc21)C(C)(C)CCC3 [Example 12, dihydrochloride] | 98.6%
* CN1CC[C@H](c2c(OC(=O)N(C)CCN)cc(O)c3c(=O)cc(-c4ccccc4Cl)oc23)[C@H](O)C1 [Example 8] | 100%
